# Lookup of reported growth inhibition keyed by entry
Assay: NCI Yeast Anticancer Drug Screen. Data for the mlh1 strain (AID 171);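 further: 0% = growth of vehicle-treated control cultures of the same strain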
Details: S. cerevisiae mlh1 strain growth inhibition; at 1.2 µM; hits give high values
Description: Growth inhibition of yeast strains with defined genetic alterations is measured as a screen for potential anti-cancer activity. Selected strains with alterations in DNA damage repair or cell cycle control were exposed to compounds and growth inhibition was measured relative to vehicle treated controls. The strain used in this assay is mlh1
Compounds without any hit were thinned out: in the full panel of roughly 79,000, 15% have a hit.
Reply numerically in %, unit not repeated.

Example results:
[
  {
    "compound": "Cc1ccc(S(=O)(=O)N(C)c2ccc(Cl)cc2C2=NCCc3ccccc32)cc1",
    "outcome measure": "growth inhibition",
    "unit label": "%",
    "readout value": -21
  },
  {
    "compound": "S=P(N1CC1)(N1CC1)N1CC1",
    "outcome measure": "growth inhibition",
    "unit label": "%",
    "readout value": 0
  },
  {
    "compound": "Cn1ncc2cc3c(Nc4ccc(Cl)cc4)cccc3nc21",
    "outcome measure": "growth inhibition",
    "unit label": "%",
    "readout value": 0
  },
  {
    "compound": "Cn1c2nc3ccccc3c-2nc2ccccc21",
    "outcome measure": "growth inhibition",
    "unit label": "%",
    "readout value": 9
  },
  {
    "compound": "Nc1ccc2c(c1)sc1ccccc12",
    "outcome measure": "growth inhibition",
    "unit label": "%",
    "readout value": 9
  },
  {
    "compound": "O=NN(CCCl)C(=O)NC1CCCCC1",
    "outcome measure": "growth inhibition",
    "unit label": "%",
    "readout value": 0
  },
  {
    "compound": "Nc1cc(F)cc2c1-c1ccc(F)cc1C2",
    "outcome measure": "growth inhibition",
    "unit label": "%",
    "readout value": -4
  },
  {
    "compound": "CCOC(=O)C(NC(=O)CC)(N1CCN(c2cc3c(cc2F)c(=O)c(C(=O)O)cn3C2CC2)CC1)C(F)(F)F (stereo unspecified)",
    "outcome measure": "growth inhibition",
    "unit label": "%",
    "readout value": -1
  },
  {
    "compound": "CN=C(N)N/N=C(\\C)c1ccc2oc3ccc(/C(C)=N/NC(N)=NC)cc3c2c1",
    "outcome measure": "growth inhibition",
    "unit label": "%",
    "readout value": -23
  },
  {
    "compound": "O=C1c2cccc3cc([N+](=O)[O-])cc(c23)C(=O)N1CCN1CCCC1",
    "outcome measure": "growth inhibition",
    "unit label": "%",
    "readout value": 0
  }
]

Prompt: Which growth inhibition is listed for CC(=O)c1cc2c(Cl)cc(Cl)cc2oc1=O ?
Response: -36

Prompt: Do the same for O/N=C/C1c2ccccc2-c2ccccc21 please
Response: 4

Prompt: Do the same for O=[N+]([O-])c1c(/C=N/Nc2ccccc2)oc(-c2ccc3c(c2)OCO3)c1-c1ccc2c(c1)OCO2 please
Response: -3
